Data credit: PubChem BioAssay (NCI)

- Tested on: RPMI-8226 leukemia
- Experimental details: NCI tumour cell line growth inhibition, 48 h
Listing of recorded TGI by entry.

| Entry smiles | Limit qualifier | TGI [µM] |
| --- | --- | --- |
| O=C1c2ccccc2CN1c1ccc(O)cc1 | > | 100 |
| Nc1nn2c(C(Br)Br)cc(C(Br)Br)nc2c1[N+](=O)[O-] | = | 1.72 |
| COc1cccc(-c2cc(=O)c3c(C)cc(C)nc3[nH]2)c1 | = | 6.09 |
| N#Cc1c(-c2ccccc2)/c(=C\Nc2ccc(Cl)cc2)c(=O)n2c1nc1ccccc12 | = | 45.9 |
| O=C1/C(=C/c2ccccc2S)N=C(c2ccccc2)N1c1nc2ccc(Sc3ccccc3)cc2[nH]1 | = | 65.7 |
